Measured values drawn from patent US20140213531A1 for this set.

Reported % inhibition at 100 µM by item:
Experimental System: Thrombin, from Human Plasma, high activity (human, UniProt P00734 328-622)
Assay Info: cell-based or functional assay
Write the value in % as a bare number.

Would you please look over these solved cases?
Binder: FCTKSDPPICN (HELM PEPTIDE1{F.C.T.K.S.D.P.P.I.C.N.[dP].P}$PEPTIDE1,PEPTIDE1,2:R3-10:R3|PEPTIDE1,PEPTIDE1,1:R1-13:R2$$$V2.0; SMILES CC[C@H](C)[C@@H]1NC(=O)[C@@H]2CCCN2C(=O)[C@@H]2CCCN2C(=O)[C@H](CC(=O)O)NC(=O)[C@H](CO)NC(=O)[C@H](CCCCN)NC(=O)[C@H]([C@@H](C)O)NC(=O)[C@@H]2CSSC[C@H](NC1=O)C(=O)N[C@@H](CC(N)=O)C(=O)N1CCC[C@@H]1C(=O)N1CCC[C@H]1C(=O)N[C@@H](Cc1ccccc1)C(=O)N2) [Example 3]
Metric Name: % inhibition at 100 µM
Recorded Result: 0

Binder: XCTKSDPPICY (HELM PEPTIDE1{[Nle].C.T.K.S.D.P.P.I.C.Y.[dP].P}$PEPTIDE1,PEPTIDE1,2:R3-10:R3|PEPTIDE1,PEPTIDE1,1:R1-13:R2$$$V2.0; SMILES CCCC[C@@H]1NC(=O)[C@@H]2CCCN2C(=O)[C@H]2CCCN2C(=O)[C@H](Cc2ccc(O)cc2)NC(=O)[C@@H]2CSSC[C@H](NC1=O)C(=O)N[C@@H]([C@@H](C)O)C(=O)N[C@@H](CCCCN)C(=O)N[C@@H](CO)C(=O)N[C@@H](CC(=O)O)C(=O)N1CCC[C@H]1C(=O)N1CCC[C@H]1C(=O)N[C@@H]([C@@H](C)CC)C(=O)N2) [Example 44]
Metric Name: % inhibition at 100 µM
Recorded Result: 9

Binder: FCTXSDPPICY (HELM PEPTIDE1{F.C.T.[Nle].S.D.P.P.I.C.Y.[dP].P}$PEPTIDE1,PEPTIDE1,2:R3-10:R3|PEPTIDE1,PEPTIDE1,1:R1-13:R2$$$V2.0; SMILES CCCC[C@@H]1NC(=O)[C@H]([C@@H](C)O)NC(=O)[C@@H]2CSSC[C@H](NC(=O)[C@H]([C@@H](C)CC)NC(=O)[C@@H]3CCCN3C(=O)[C@@H]3CCCN3C(=O)[C@H](CC(=O)O)NC(=O)[C@H](CO)NC1=O)C(=O)N[C@@H](Cc1ccc(O)cc1)C(=O)N1CCC[C@@H]1C(=O)N1CCC[C@H]1C(=O)N[C@@H](Cc1ccccc1)C(=O)N2) [Example 23]
Metric Name: % inhibition at 100 µM
Recorded Result: 0

--- query ---
Input: What value of measured % inhibition at 100 µM is listed for ICTKSDPPYCR (HELM PEPTIDE1{I.C.T.K.S.D.P.P.Y.C.R.[dP].P}$PEPTIDE1,PEPTIDE1,2:R3-10:R3|PEPTIDE1,PEPTIDE1,1:R1-13:R2$$$V2.0; SMILES CC[C@H](C)[C@@H]1NC(=O)[C@@H]2CCCN2C(=O)[C@H]2CCCN2C(=O)[C@H](CCCNC(=N)N)NC(=O)[C@@H]2CSSC[C@H](NC1=O)C(=O)N[C@@H]([C@@H](C)O)C(=O)N[C@@H](CCCCN)C(=O)N[C@@H](CO)C(=O)N[C@@H](CC(=O)O)C(=O)N1CCC[C@H]1C(=O)N1CCC[C@H]1C(=O)N[C@@H](Cc1ccc(O)cc1)C(=O)N2) [Example 56] ?
Output: 0
